So I've got a bunch of compounds here, and I need their IC50 values.
# system: C-Raf kinase (Homo sapiens, UniProt P04049, Y340D/Y341D)
# Construct: Y340D,; GST (N); purchased Sigma
# Sequence (P04049 307-648 Y340D/Y341D): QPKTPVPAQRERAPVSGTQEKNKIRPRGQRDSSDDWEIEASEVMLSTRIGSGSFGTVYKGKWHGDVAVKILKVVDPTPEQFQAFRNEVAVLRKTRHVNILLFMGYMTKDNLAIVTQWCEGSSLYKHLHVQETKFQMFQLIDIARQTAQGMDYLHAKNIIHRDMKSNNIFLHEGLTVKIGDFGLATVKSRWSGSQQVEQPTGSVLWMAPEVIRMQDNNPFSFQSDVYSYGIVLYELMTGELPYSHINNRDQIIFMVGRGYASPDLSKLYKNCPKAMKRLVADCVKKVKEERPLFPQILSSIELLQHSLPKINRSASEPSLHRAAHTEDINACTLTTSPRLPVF
# test_protocol: Biochemical assay for C-Raf.1 (coupled pyruvate kinase/lactate dehydrogenase)
# recorded_conditions: read-out: CRAF.1 IC50

Query :: State the recorded IC50 for this entry: COC(=O)Nc1cc(-c2cnnc(-c3cc(NC(=O)NCCC(C)(C)OC)c(F)cc3C)c2)ccn1
Result :: 100 to 500 nM

Query :: State the recorded IC50 for this entry: CNC(=O)c1cc(-c2cc(-c3cc(NC(=O)NCCC4(C)CC4)c(F)cc3C)cc(OCCO)n2)ccn1
Result :: ≤ 100 nM

Query :: State the recorded IC50 for this entry: Cc1ncc(NC(=O)NCCC2(C)CC2)cc1-c1ccnc(-c2ccnc(NC(=O)C3CC3)c2)n1
Result :: ≤ 100 nM

Query :: State the recorded IC50 for this entry: Cc1ccc(NC(=O)Nc2ccnc(C(C)(C)C#N)c2)cc1-c1ccnc(-c2ccnc(C(=O)NC3CC3)c2)c1
Result :: ≤ 100 nM

====

# System: A375 cells
# test_protocol: A375 cell proliferation assay (1), resazurin, 96-well
# Format: cell-based
# recorded_conditions: Homo sapiens, A-375, inhibition of cell proliferation
# Excerpt: A375 Cell Proliferation Assay (1) […]
measured_quantity: IC50

Query :: State the recorded IC50 for this entry: Cc1cc(F)c(NC(=O)N2CCC(C)(C#N)C2)cc1-c1cc(OCCO)nc(-c2ccnc3[nH]ncc23)c1 (stereo not drawn)
Result :: 1 to 10 µM

Query :: State the recorded IC50 for this entry: COC(=O)Nc1cc(-c2cc(-c3cc(NC(=O)NCCC4(C)CC4)cnc3C)cc(OCCO)n2)ccn1
Result :: 1 to 10 µM

Query :: State the recorded IC50 for this entry: Cc1cc(F)c(NC(=O)NCCC(C)(C)F)cc1-c1nccc(-c2ccnc(NC(=O)C3CC3)c2)n1
Result :: 1 to 10 µM

Query :: State the recorded IC50 for this entry: CNC(=O)c1cc(-c2cc(-c3cc(NC(=O)NCCC4(C)CC4)c(F)cc3C)cc(OCCO)n2)ccn1
Result :: ≤ 0.1 µM

Query :: State the recorded IC50 for this entry: Cc1cc(F)c(NC(=O)NCCC2(C(F)(F)F)CC2)cc1-c1cc(N2CCOCC2)nc(N2CC[C@H](N(C)C)C2)c1
Result :: 1 to 10 µM

Query :: State the recorded IC50 for this entry: Cc1ccc(NC(=O)Nc2cnc(C(F)(F)F)s2)cc1-c1cc(OCCO)nc(N2CCOCC2)c1
Result :: ≤ 0.1 µM

Query :: State the recorded IC50 for this entry: Cc1ccc(NC(=O)N2CC[C@H](C(F)(F)F)C2)cc1-c1cncc(-c2cc(NC(=O)C3CC3)ncn2)c1
Result :: 0.1 to 0.5 µM

Query :: State the recorded IC50 for this entry: CNC(=O)c1cc(-c2cnnc(-c3cc(NC(=O)N4CCC(C(C)(C)C)C4)ccc3C)c2)ccn1 (stereo not drawn)
Result :: 0.1 to 0.5 µM

Query :: State the recorded IC50 for this entry: Cc1ncc(NC(=O)NC2CC(C)(C)C2)cc1-c1cc(OCCO)nc(-c2ccnc(NC(=O)C3CC3)c2)c1
Result :: 0.1 to 0.5 µM

Query :: State the recorded IC50 for this entry: COC1(CCNC(=O)Nc2cc(-c3ccnc(-c4ccnc(NC(=O)C5CC5)c4)c3)c(C)cc2F)CC1
Result :: 1 to 10 µM

Query :: State the recorded IC50 for this entry: CC(=O)Nc1cc(-c2cc(-c3cc(NC(=O)NCCC4(C)CC4)c(F)cc3C)cc(NCCO)n2)ccn1
Result :: 0.1 to 0.5 µM

Query :: State the recorded IC50 for this entry: COC(C)(C)CCNC(=O)Nc1cc(-c2nccc(-c3ccnc(NC(=O)C4CC4)c3)n2)c(C)cc1F
Result :: 1 to 10 µM

Query :: State the recorded IC50 for this entry: Cc1ncc(NC(=O)NCCC2(C)CC2)cc1-c1nccc(-c2ccnc(NC(=O)C3CC3)c2)n1
Result :: 1 to 10 µM

Query :: State the recorded IC50 for this entry: Cc1ccc(NC(=O)NCCC2(C)CC2)cc1-c1cc(-c2cnn(C)c2)nc(N2CCOCC2)c1
Result :: 1 to 10 µM

Query :: State the recorded IC50 for this entry: COC(=O)Nc1nccc(-c2cc(OCCO)cc(-c3cc(NC(=O)NCCC4(C)CC4)c(F)cc3C)c2)n1
Result :: 0.5 to 1 µM

Query :: State the recorded IC50 for this entry: Cc1ncc(NC(=O)NCCC(C)(C)F)cc1-c1nccc(-c2ccnc(NC(=O)C3CC3)c2)n1
Result :: 1 to 10 µM

Query :: State the recorded IC50 for this entry: COC(=O)Nc1cc(-c2cc(-c3cc(NC(=O)NCCC4(C)CC4)cnc3C)ccn2)ccn1
Result :: 1 to 10 µM

Query :: State the recorded IC50 for this entry: COC[C@H]1CCN(C(=O)Nc2cc(-c3cc(-c4ccnc(NC(=O)OC)c4)cnn3)c(C)cc2F)C1
Result :: 1 to 10 µM

Query :: State the recorded IC50 for this entry: CNC(=O)c1cc(-c2cc(-c3cc(NC(=O)Nc4ccnc(C(C)(C)C#N)c4)ccc3C)ccn2)ccn1
Result :: 1 to 10 µM

Query :: State the recorded IC50 for this entry: COC(=O)Nc1cc(-c2nccc(-c3cc(NC(=O)NCCC(C)(C)F)c(F)cc3C)n2)ccn1
Result :: 1 to 10 µM

Query :: State the recorded IC50 for this entry: Cc1ccc(NC(=O)NCCC(C)(C)C)cc1-c1cc(N2CCOCC2)nc(N2CC(C)(O)C2)n1
Result :: ≤ 0.1 µM

Query :: State the recorded IC50 for this entry: Cc1cc(F)c(NC(=O)NCCC(C)(C)F)cc1-c1cc(-c2ccnc(NC(=O)C3CC3)c2)cnn1
Result :: 1 to 10 µM

Query :: State the recorded IC50 for this entry: Cc1ccc(NC(=O)N2CCC(CC(F)(F)F)C2)cc1-c1cncc(-c2cc(N)ncn2)c1 (stereo not drawn)
Result :: 1 to 10 µM

Query :: State the recorded IC50 for this entry: COC(=O)Nc1cc(-c2cc(-c3cc(NC(=O)N4CCC(C(F)(F)F)C4)ccc3C)cc(OCCO)n2)ccn1 (stereo not drawn)
Result :: 0.1 to 0.5 µM

Query :: State the recorded IC50 for this entry: Cc1cc(F)c(NC(=O)NCCC2(C)COC2)cc1-c1cc(OCCO)nc(-c2ccnc3[nH]ncc23)c1
Result :: 1 to 10 µM

Query :: State the recorded IC50 for this entry: Cc1cc(F)c(NC(=O)NCCC(C)(C)C#N)cc1-c1cc(N2CCOCC2)nc(N2CCOCC2)c1
Result :: 1 to 10 µM

Query :: State the recorded IC50 for this entry: CNc1cc(-c2cc(-c3cc(NC(=O)NCCC4(C(F)(F)F)CC4)c(F)cc3C)cc(OCCO)n2)ccn1
Result :: 0.1 to 0.5 µM

Query :: State the recorded IC50 for this entry: Cc1ccc(NC(=O)N2CC[C@@H](C(C)C)C2)cc1-c1cncc(-c2cc(NC(=O)C3CC3)ncn2)c1
Result :: ≤ 0.1 µM

Query :: State the recorded IC50 for this entry: Cc1cc(F)c(NC(=O)NCCC2(C)CC2)cc1-c1cc(OCC(C)(C)O)nc(-c2ccncc2)c1
Result :: 1 to 10 µM

Query :: State the recorded IC50 for this entry: CC(=O)Nc1cc(-c2cc(-c3cc(NC(=O)NCCC4(C)CC4)c(F)cc3C)cc(C)n2)ccn1
Result :: 1 to 10 µM
